# protocol: TOR pathway RPL19A-GFP modulators, concentration series – cell-based, S. cerevisiae, flow cytometry, MLPCN hits, dose response (AID 2740);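 note: background is signal of the same compound in parental non-GFP s288c yeast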
# conditions: S. cerevisiae RPL19A-GFP strain, flow cytometry fluorescence, 3 h; at 33 µM (top of the series)
The source made the active and inactive calls.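 Rule for the calls: active = compounds whose fitted half-maximal concentration for changing the GFP signal is at or below a set limit; inactive = the rest.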
parameter.measured: GFP fluorescence, lower = active (kMESF (background-subtracted))

Retrieve GFP fluorescence, lower = active (kMESF (background-subtracted)) measured for CN(C)c1ccc(N=Cc2nc(-c3ccccc3)oc2OC(=O)c2ccccc2)cc1 and print it. 44.1 (inactive)

Next:
Retrieve GFP fluorescence, lower = active (kMESF (background-subtracted)) measured for CCOc1ccc(N2C(=O)C(Cl)=C(Nc3ccccc3O)C2=O)cc1 and print it. 45.1 (inactive)

Retrieve GFP fluorescence, lower = active (kMESF (background-subtracted)) measured for Nc1nc(N)c2nc(CNc3ccc(C(=O)NC(CCC(=O)O)C(=O)O)cc3)cnc2n1 (stereo not given) and print it. 45.5 (inactive)

Retrieve GFP fluorescence, lower = active (kMESF (background-subtracted)) measured for O=S1(=O)C=C(Sc2nc3ccccc3s2)c2ccccc21 and print it. 36 (inactive)

Retrieve GFP fluorescence, lower = active (kMESF (background-subtracted)) measured for Cc1ccc2[nH]c(C)c(/C=C/c3cc[n+](C)cc3)c2c1 and print it. 37.4 (inactive)

###

Here the recorded GFP fluorescence, lower = active (kMESF (background-subtracted)) is given for each entry.
# protocol: TOR pathway RPL19A-GFP modulators, concentration series – cell-based, S. cerevisiae, flow cytometry, MLPCN hits, dose response (AID 2740);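 note: background is signal of the same compound in parental non-GFP s288c yeast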
# conditions: S. cerevisiae RPL19A-GFP strain, flow cytometry fluorescence, 3 h; at 33 µM (top of the series)
I only need the number, thanks.

Retrieve GFP fluorescence, lower = active (kMESF (background-subtracted)) measured for COc1ccc([C@@]2(C(C)C)ON(c3ccccc3C(F)(F)F)C2=O)cc1 and print it. 45.9

Retrieve GFP fluorescence, lower = active (kMESF (background-subtracted)) measured for Cc1ccc(C(=O)/C=C/C(=O)c2ccc(C)cc2)cc1 and print it. 47.5

Retrieve GFP fluorescence, lower = active (kMESF (background-subtracted)) measured for COc1ccc(C2=CC3=C(Br)C(=O)C(C)(O)C(=O)C3=CO2)cc1 (centres undefined) and print it. 1.92

Retrieve GFP fluorescence, lower = active (kMESF (background-subtracted)) measured for O=c1oc(/C=C/c2ccc([N+](=O)[O-])s2)nc2ccccc12 and print it. 55

Retrieve GFP fluorescence, lower = active (kMESF (background-subtracted)) measured for Cc1cc(Br)c2c(c1)/C(=C/C(=O)c1cccs1)C(=O)N2 and print it. 40.3

Next:
Retrieve GFP fluorescence, lower = active (kMESF (background-subtracted)) measured for O=C1c2ccccc2C(=O)N1OS(=O)(=O)c1ccccc1 and print it. 43.2

Retrieve GFP fluorescence, lower = active (kMESF (background-subtracted)) measured for O=C1N(c2ccccc2C(F)(F)F)O[C@]1(c1ccccc1)C1CCCC1 and print it. 36.6

Retrieve GFP fluorescence, lower = active (kMESF (background-subtracted)) measured for COc1cc(SSc2cc(OC)cc([N+](=O)[O-])c2N)c(N)c([N+](=O)[O-])c1 and print it. 32.6

Retrieve GFP fluorescence, lower = active (kMESF (background-subtracted)) measured for COc1ccccc1C(=O)NNC(=S)NC(=O)c1ccco1 and print it. 35.5

Retrieve GFP fluorescence, lower = active (kMESF (background-subtracted)) measured for CN(C)/C=C/C(=O)c1ccc(-c2ccc(Cl)cc2Cl)o1 and print it. 40.9

Retrieve GFP fluorescence, lower = active (kMESF (background-subtracted)) measured for COc1cc(C=C2C(=O)c3ccccc3C2=O)cc(OC)c1 and print it. 41.6

Retrieve GFP fluorescence, lower = active (kMESF (background-subtracted)) measured for CN(C)c1ccc(/C=C/c2cc[n+](C)cc2)cc1 and print it. 44.5

###

# protocol: TOR pathway RPL19A-GFP modulators, concentration series – cell-based, S. cerevisiae, flow cytometry, MLPCN hits, dose response (AID 2740);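 note: background is signal of the same compound in parental non-GFP s288c yeast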
# conditions: S. cerevisiae RPL19A-GFP strain, flow cytometry fluorescence, 3 h; at 33 µM (top of the series)
parameter.measured: GFP fluorescence, lower = active (kMESF (background-subtracted))
I only need the number, thanks.

# annotated cases, reported GFP fluorescence, lower = active (kMESF (background-subtracted)) shown
Retrieve GFP fluorescence, lower = active (kMESF (background-subtracted)) measured for Cc1ccccc1OCCOC(=O)c1ccc(S(=O)(=O)N2CCCC2)cc1 and print it. 43.3

Retrieve GFP fluorescence, lower = active (kMESF (background-subtracted)) measured for Cc1ccsc1/C=C1\C(=O)NC(=S)N(C)C1=O and print it. 19.6

Retrieve GFP fluorescence, lower = active (kMESF (background-subtracted)) measured for O=C(Oc1c(Cl)cc(Cl)c2cccnc12)c1ccco1 and print it. 34.9

Retrieve GFP fluorescence, lower = active (kMESF (background-subtracted)) measured for Cc1cc(/C=C2/SC(=S)N(c3cccc(Cl)c3)C2=O)c(C)n1-c1cccnc1 and print it. 42.7

Retrieve GFP fluorescence, lower = active (kMESF (background-subtracted)) measured for C=CCn1c(C)c(/C=C/c2cc[n+](C)cc2)c2ccccc21 and print it. 52.8

Then this compound:
Retrieve GFP fluorescence, lower = active (kMESF (background-subtracted)) measured for Cc1ccc2c(nc3s/c(=C\c4ccc(-c5ccccc5C(=O)O)o4)c(=O)n32)c1C and print it. 53.5

###

# protocol: TOR pathway RPL19A-GFP modulators, concentration series – cell-based, S. cerevisiae, flow cytometry, MLPCN hits, dose response (AID 2740);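 note: background is signal of the same compound in parental non-GFP s288c yeast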
# conditions: S. cerevisiae RPL19A-GFP strain, flow cytometry fluorescence, 3 h; at 33 µM (top of the series)
parameter.measured: GFP fluorescence, lower = active (kMESF (background-subtracted))
I only need the number, thanks.

# annotated cases, reported GFP fluorescence, lower = active (kMESF (background-subtracted)) shown
Retrieve GFP fluorescence, lower = active (kMESF (background-subtracted)) measured for COc1cc(/C=C2\C(=O)ON=C2c2ccccc2)cc(OC)c1OC and print it. 33.4

Retrieve GFP fluorescence, lower = active (kMESF (background-subtracted)) measured for CSC1=NS(=O)(=O)c2c(C)nn(C)c2S1 and print it. 35.2

Retrieve GFP fluorescence, lower = active (kMESF (background-subtracted)) measured for O=C(COc1ccccc1)NNC(=S)NC(=O)c1ccccc1 and print it. 44.4

Retrieve GFP fluorescence, lower = active (kMESF (background-subtracted)) measured for COc1ccc(C(=O)NC(=S)NNC(=O)c2cnccn2)cc1OC and print it. 38.6

Retrieve GFP fluorescence, lower = active (kMESF (background-subtracted)) measured for COC(=O)CCS(=O)(=O)c1nc(-c2ccccc2)cc(C(F)(F)F)n1 and print it. 37.3

Retrieve GFP fluorescence, lower = active (kMESF (background-subtracted)) measured for C=CCN1C(=O)/C(=C/c2cccs2)C(=O)NC1=S and print it. 15.8

Retrieve GFP fluorescence, lower = active (kMESF (background-subtracted)) measured for Cc1cccnc1Nc1nc(-c2ccccn2)cs1 and print it. 33.3

Retrieve GFP fluorescence, lower = active (kMESF (background-subtracted)) measured for Cc1ccc(NC(=O)c2ccc(Cl)c(N3C(=O)C=CC3=O)c2)cc1 and print it. 22.4

Next:
Retrieve GFP fluorescence, lower = active (kMESF (background-subtracted)) measured for Cc1ccccc1[C@@]1(C)ON(c2ccccc2C(F)(F)F)C1=O and print it. 40.6

Retrieve GFP fluorescence, lower = active (kMESF (background-subtracted)) measured for O=C(O)c1ccc2c(c1)C(=O)/C(=C/c1ccccc1)C2=O and print it. 36.8

Retrieve GFP fluorescence, lower = active (kMESF (background-subtracted)) measured for Cc1ccccc1N1C(=O)C(Cl)=C(N2CCN(c3ccccc3)CC2)C1=O and print it. 39.3

Retrieve GFP fluorescence, lower = active (kMESF (background-subtracted)) measured for O=C(COc1ccccc1)NNC(=S)NC(=O)c1ccc(Cl)cc1Cl and print it. 28

###

# protocol: TOR pathway RPL19A-GFP modulators, concentration series – cell-based, S. cerevisiae, flow cytometry, MLPCN hits, dose response (AID 2740);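 note: background is signal of the same compound in parental non-GFP s288c yeast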
# conditions: S. cerevisiae RPL19A-GFP strain, flow cytometry fluorescence, 3 h; at 33 µM (top of the series)
// returns N unless GFP fluorescence, lower = active (kMESF (background-subtracted)) is strictly below 40, in which case Y

Worked examples follow.
In the record for Cc1c(NC2=C(Cl)C(=O)N(c3ccccc3)C2=O)c(=O)n(-c2ccccc2)n1C , is GFP fluorescence, lower = active (kMESF (background-subtracted)) less than 40? N

In the record for CC(=O)Oc1ccc(N2C(=O)C3C4C=CC(O4)C3C2=O)cc1 (stereo unspecified) , is GFP fluorescence, lower = active (kMESF (background-subtracted)) less than 40? N

In the record for COc1ccccc1OCCCc1c(C)n[nH]c1C , is GFP fluorescence, lower = active (kMESF (background-subtracted)) less than 40? Y

In the record for N#Cc1c2ccc([N+](=O)[O-])cc2[n+]([O-])n1-c1ccccc1 , is GFP fluorescence, lower = active (kMESF (background-subtracted)) less than 40? N

In the record for COc1cc(/C=C/c2ccc3c(Br)cc(Br)c(O)c3n2)ccc1O , is GFP fluorescence, lower = active (kMESF (background-subtracted)) less than 40? Y

In the record for O=C1N(c2ccccc2C(F)(F)F)O[C@@]1(c1ccccc1)C1CCCC1 , is GFP fluorescence, lower = active (kMESF (background-subtracted)) less than 40? N

In the record for CCOc1ccccc1/C=c1\sc2ncnn2c1=O , is GFP fluorescence, lower = active (kMESF (background-subtracted)) less than 40? Y

Please find the next compound below.
In the record for COc1ccc(OCC(=O)NNC(=S)NC(=O)C2CCCCC2)cc1 , is GFP fluorescence, lower = active (kMESF (background-subtracted)) less than 40? Y
